ASSAYED TARGET: human MMP19 catalytic domain (Homo sapiens, UniProt Q99542)
Construct: Recombinant human MMP19 catalytic domain; made in house
Sequence (Q99542 98-256 limits assumed): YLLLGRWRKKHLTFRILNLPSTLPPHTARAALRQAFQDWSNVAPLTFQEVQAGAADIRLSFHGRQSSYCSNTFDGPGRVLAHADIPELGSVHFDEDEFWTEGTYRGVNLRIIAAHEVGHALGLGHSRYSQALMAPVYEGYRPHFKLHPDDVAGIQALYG
MEASUREMENT PROTOCOL: Isolated enzyme assay MMP19 (fluorogenic substrate)
Type: biochemical
ASSAY SETUP: IC50 (MMP19) divided by IC50 (MMP12)
Where a name gives a salt, the structure may show the parent alone.
Assign Selectivity for inhibition of hMMP12 over: hMMP19 to each entry below.

Use the examples below as a reference point.
CN(Cc1ccc(Oc2cnc(C(F)(F)F)nc2)cc1)S(=O)(=O)C[C@@]1(C2CC2)NC(=O)NC1=O = >2882
CN(Cc1ccc(Oc2cncnc2)cc1)S(=O)(=O)C[C@@]1(C2CC2)NC(=O)NC1=O [Example 1, trifluoroacetic acid salt] = >525

Kindly give each listed record's Selectivity for inhibition of hMMP12 over: hMMP19.
1. CCc1ncc(Oc2ccc(CN(C)S(=O)(=O)C[C@@]3(C4CC4)NC(=O)NC3=O)cc2)cn1
2. CN(Cc1ccc(Oc2cnc(C3CC3)nc2)cc1)S(=O)(=O)C[C@@]1(C2CC2)NC(=O)NC1=O
3. Cc1ncc(Oc2ccc(CN(C)S(=O)(=O)C[C@@]3(C4CC4)NC(=O)NC3=O)cc2)cn1
4. C[C@]1(CS(=O)(=O)NCc2ccc(Oc3ccccc3)cc2)NC(=O)NC1=O [reference compound]

[">588", ">2320", ">2800", ">330"]
